The origin of these recorded values is patent US10898481B2.

System tested: mA2a/CHO (Mus musculus (Mouse))
Assay: cAMP inhibition assay in mA2a/CHO cells, 10 μM adenosine
Type: cell-based
Run parameters: read-out: cAMP & FLIPR IC50 (nM) mA2a
Give log10 of IC50 for every item shown.
# values: log10(IC50), units nM

Recorded log10 of IC50 of COc1ccccc1CNC(=O)c1nc(-c2ccc(=O)n(C(F)F)c2)c(-c2ccc(F)cc2)nc1N [Example 76] , please.
1.34

Recorded log10 of IC50 of Cc1cccc(CNC(=O)c2nc(-c3ccc(=O)n(C)c3)c(-c3ncco3)nc2N)n1 [Example 18] , please.
2.06

Recorded log10 of IC50 of Nc1ccnc(CNC(=O)c2nc(-c3ccc4nccn4c3)c(-c3ncco3)nc2N)n1 [Example 95] , please.
2.82

Recorded log10 of IC50 of CN(C)c1cccc(CNC(=O)c2nc(-c3ccc(=O)n(C)c3)c(-c3ccc(F)cc3)nc2N)n1 [Example 13] , please.
1.71

Recorded log10 of IC50 of Cc1scnc1CNC(=O)c1nc(-c2ccc3nccn3c2)c(-c2ncco2)nc1N [Example 94] , please.
1.53

Recorded log10 of IC50 of Cc1cc(-c2nc(C(=O)NCc3ccccc3Cl)c(N)nc2-c2ccc(F)cc2)cc(C)n1 [Example 79] , please.
2.73

Recorded log10 of IC50 of Nc1nc(-c2ncco2)c(-c2ccc(=O)n(C(F)F)c2)nc1C(=O)NCc1ncccc1F [Example 31] , please.
1.88

Recorded log10 of IC50 of Cn1cc(-c2nc(C(=O)NCc3c(F)cccc3F)c(N)nc2-c2ncco2)ccc1=O [Example 3] , please.
0.76

Recorded log10 of IC50 of Cc1cnc2ccc(-c3nc(C(=O)NC[C@@H]4CCCN4)c(N)nc3-c3ncco3)cn12 [Example 123] , please.
2.18

Recorded log10 of IC50 of COc1ccccc1CNC(=O)c1nc(-c2cc(C)nc(C)c2)c(-n2ccc(C)n2)nc1N [Example 75] , please.
2.20

Recorded log10 of IC50 of Cc1cc(-c2nc(C(=O)NCc3c(F)cccc3OC(F)F)c(N)nc2-c2ccc(F)cc2)cc(C)n1 [Example 85] , please.
1.56

Recorded log10 of IC50 of Cc1cnc2ccc(-c3nc(C(=O)NCCS(C)(=O)=O)c(N)nc3-c3ccc(F)cc3)cn12 [Example 150] , please.
0.81

Recorded log10 of IC50 of Nc1nc(-c2ncco2)c(-c2ccc3nncn3c2)nc1C(=O)NCc1c(F)cccc1F [Example 34] , please.
2.28

Recorded log10 of IC50 of Cc1cnc2ccc(-c3nc(C(=O)NCc4cccc(N[C@H]5C[C@H](N(C)C)C5)n4)c(N)nc3-c3ncco3)cn12 [Cmpd. 227] , please.
1.38

Recorded log10 of IC50 of Cc1cnc2ccc(-c3nc(C(=O)NC4CC4)c(N)nc3-c3ncco3)cn12 [Example 245] , please.
1.59

Recorded log10 of IC50 of Cc1cnc2ccc(-c3nc(C(=O)NCC4CCCN4C)c(N)nc3-c3ncco3)cn12 (single isomer, unassigned) [Example 121] , please.
2.31

Recorded log10 of IC50 of CN(C)c1ccc(F)c(CNC(=O)c2nc(-c3ccc(=O)n(C)c3)c(-c3ncco3)nc2N)c1 [Example 27] , please.
2.25

Recorded log10 of IC50 of CP(C)(=O)c1cccc(F)c1CNC(=O)c1nc(-c2ccc3nccn3c2)c(-c2ncco2)nc1N [Example 96] , please.
0.88

Recorded log10 of IC50 of COCCNC(=O)c1nc(-c2ccc3ncc(C)n3c2)c(-n2nccn2)nc1N [Example 243] , please.
1.48

Recorded log10 of IC50 of CNCCOc1cccnc1CNC(=O)c1nc(-c2ccc3ncc(C)n3c2)c(-c2ccc(F)cc2)nc1N [Cmpd. 199] , please.
0.20

Recorded log10 of IC50 of Nc1nc(-c2ncco2)c(-c2ccc(=O)[nH]c2)nc1C(=O)NCc1c(F)cccc1F [Example 105] , please.
-0.10

* * *

System tested: hA2a/CHO (Homo sapiens (Human))
Sequence (P29274 whole entry): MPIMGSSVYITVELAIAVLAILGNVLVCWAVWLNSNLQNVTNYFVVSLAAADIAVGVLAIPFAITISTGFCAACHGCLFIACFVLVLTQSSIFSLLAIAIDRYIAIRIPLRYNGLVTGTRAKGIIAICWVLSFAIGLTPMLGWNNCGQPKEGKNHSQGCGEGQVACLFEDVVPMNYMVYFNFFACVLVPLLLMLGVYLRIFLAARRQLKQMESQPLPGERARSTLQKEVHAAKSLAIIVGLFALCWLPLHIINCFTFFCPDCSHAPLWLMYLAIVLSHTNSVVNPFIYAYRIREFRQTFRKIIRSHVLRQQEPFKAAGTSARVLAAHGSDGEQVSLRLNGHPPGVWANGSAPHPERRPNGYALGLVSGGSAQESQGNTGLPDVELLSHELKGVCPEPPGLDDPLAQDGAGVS
Assay: cAMP inhibition assay in hA2a/CHO cells, 10 μM adenosine;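 note: compounds added to cells 30 min ahead of adenosine, then a further 30 min at 37 °C with adenosine before cAMP detection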
Assay type: cell-based
Run parameters: read-out: cAMP & FLIPR IC50 (nM) hA2a
Property: log10 IC50 (log10 of the value in nM)
# values: log10(IC50), units nM

Recorded log10 IC50 of COc1ccccc1CNC(=O)c1nc(-c2ccc(=O)n(C)c2)c(-c2ccc(F)cc2)nc1N , please.
0.81

Recorded log10 IC50 of COc1cccnc1CNC(=O)c1nc(-c2cc(C)nc(C)c2)c(-c2ccc(F)cc2)nc1N , please.
1.81

Recorded log10 IC50 of Cn1cc(-c2nc(C(=O)NCc3cccc(N)n3)c(N)nc2-c2ncco2)ccc1=O , please.
2.30

Recorded log10 IC50 of COc1ccccc1CNC(=O)c1nc(-c2cc(C)nc(C)c2)c(-n2nccc2C)nc1N , please.
1.64

Recorded log10 IC50 of CNC(=O)CCNC(=O)c1nc(-c2ccc3ncc(C)n3c2)c(-c2ncco2)nc1N , please.
1.51

Recorded log10 IC50 of Cc1cnc2ccc(-c3nc(C(=O)NCc4cccc(N5CCOCC5)n4)c(N)nc3-c3ncco3)cn12 , please.
0.49

Recorded log10 IC50 of Cc1cnc2ccc(-c3nc(C(=O)NCc4cccc(N5C[C@H]6CC[C@@H](C5)N6C)n4)c(N)nc3-c3ncco3)cn12 , please.
0.71

Recorded log10 IC50 of Cc1cnc2ccc(-c3nc(C(=O)NC[C@@H]4CCCO4)c(N)nc3-c3ncco3)cn12 , please.
0.23

* * *

System tested: mA2a/CHO (Mus musculus (Mouse), UniProt Q60613)
Sequence (Q60613 whole entry): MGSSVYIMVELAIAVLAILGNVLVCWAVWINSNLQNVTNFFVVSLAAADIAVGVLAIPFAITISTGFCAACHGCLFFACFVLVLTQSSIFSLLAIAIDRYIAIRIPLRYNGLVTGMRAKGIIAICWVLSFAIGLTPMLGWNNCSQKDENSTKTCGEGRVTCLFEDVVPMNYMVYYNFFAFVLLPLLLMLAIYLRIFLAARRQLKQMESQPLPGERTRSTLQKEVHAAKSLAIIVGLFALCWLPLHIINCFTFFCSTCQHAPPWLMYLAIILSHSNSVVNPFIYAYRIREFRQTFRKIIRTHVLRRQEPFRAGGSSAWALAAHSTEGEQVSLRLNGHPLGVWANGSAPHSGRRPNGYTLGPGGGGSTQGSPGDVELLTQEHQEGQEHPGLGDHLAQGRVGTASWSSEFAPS
Assay: cAMP inhibition assay in mA2a/CHO cells, 10 μM adenosine;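 note: compounds preincubated 30 min at 37 °C before the adenosine challenge, then 30 min further stimulation, readout after 60 min detection reagent incubation at room temperature in 384-well plates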
Format: cell-based
Run parameters: read-out: cAMP & FLIPR IC50 (nM) mA2a
Property: IC50 (nM)
Give the value, in units of nM, as a plain number.

Recorded IC50 of CCc1cnn2ccc(-c3nc(C(=O)NC[C@@H]4CCCN4C)c(N)nc3-c3ncco3)cc12 , please.
944

Recorded IC50 of Cc1cnc2ccc(-c3nc(C(=O)NCCN(C)c4ccccn4)c(N)nc3-c3ncco3)cn12 , please.
65

Recorded IC50 of Cc1cnc2ccc(-c3nc(C(=O)NC[C@H]4CCN(C(=O)C5CC5)C4)c(N)nc3-c3ncco3)cn12 , please.
220

Recorded IC50 of Cc1cc(-c2nc(CNC(=O)c3ccccn3)c(N)nc2-c2ccc(F)cc2)cc(C)n1 , please.
390

* * *

System tested: hA2b/CHO (Homo sapiens (Human), UniProt P29275)
Sequence (P29275 whole entry): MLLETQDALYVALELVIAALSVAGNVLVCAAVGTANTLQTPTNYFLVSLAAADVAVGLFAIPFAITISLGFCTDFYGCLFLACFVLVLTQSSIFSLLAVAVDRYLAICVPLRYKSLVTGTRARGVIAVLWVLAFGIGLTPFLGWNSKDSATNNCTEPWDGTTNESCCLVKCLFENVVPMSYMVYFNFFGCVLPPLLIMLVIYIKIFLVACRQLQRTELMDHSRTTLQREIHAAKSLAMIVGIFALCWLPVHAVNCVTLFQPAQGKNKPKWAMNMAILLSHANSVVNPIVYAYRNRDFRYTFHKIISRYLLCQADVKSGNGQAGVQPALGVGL
Assay: cAMP inhibition assay in hA2b/CHO cells, 10 μM adenosine
Type: cell-based
Run parameters: read-out: cAMP & FLIPR IC50 (nM) hA2b
Give IC50 for every item shown.

Recorded IC50 of Cc1cc(-c2nc(C(=O)NCc3ccccc3C(F)(F)F)c(N)nc2-c2ccc(F)cc2)cc(C)n1 , please.
≥ 10000 nM

Recorded IC50 of COc1c(F)cccc1CNC(=O)c1nc(-c2cc(C)nc(C)c2)c(-c2ccc(F)cc2)nc1N , please.
≥ 10000 nM

Recorded IC50 of CN(C)c1cccc(CNC(=O)c2nc(-c3ccc(=O)n(C)c3)c(-c3ncco3)nc2N)n1 , please.
≥ 10000 nM

Recorded IC50 of Cc1cc(-c2nc(C(=O)NCc3ccccc3Cl)c(N)nc2-c2ccc(F)cc2)cc(C)n1 , please.
≥ 10000 nM

Recorded IC50 of Cc1cc(-c2nc(CNC(=O)c3ccccn3)c(N)nc2-c2ccc(F)cc2)cc(C)n1 , please.
≥ 10000 nM

Recorded IC50 of COc1ccccc1CNC(=O)c1nc(-c2cc(C)nc(C)c2)c(-n2cccn2)nc1N , please.
≥ 10000 nM

Recorded IC50 of Cc1cnc2ccc(-c3nc(C(=O)N4CC[C@@H](N(C)C)C4)c(N)nc3-c3ccc(F)cc3)cn12 , please.
> 10000 nM

Recorded IC50 of COc1ccccc1CNC(=O)c1nc(-c2cc(C)nc(C)c2)c(-n2ccc(C)n2)nc1N , please.
≥ 10000 nM

* * *

System tested: hA2b/CHO (Homo sapiens (Human), UniProt P29275)
Assay: cAMP inhibition assay in hA2b/CHO cells, 10 μM adenosine;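 note: cells exposed to compound 30 min at 37 °C, then stimulated with adenosine a further 30 min, cAMP read after 60 min at room temperature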
Type: cell-based
Run parameters: read-out: cAMP & FLIPR IC50 (nM) hA2b
Property: IC50 (nM)
Give the value, in units of nM, as a plain number.

Recorded IC50 of Cc1cnc2ccc(-c3nc(C(=O)NC[C@H]4CCOC4)c(N)nc3-c3ncco3)cn12 , please.
512

Recorded IC50 of Cc1cnc2ccc(-c3nc(C(=O)NCC4CN(C)CCO4)c(N)nc3-c3ccc(F)cc3)cn12 (single isomer, unassigned; isomer 1) [Example 246] , please.
1100

Recorded IC50 of Cc1cnc2ccc(-c3nc(C(=O)NC[C@H](C)O)c(N)nc3-c3ncco3)cn12 , please.
256

Recorded IC50 of Cc1cnc2ccc(-c3nc(C(=O)NCc4cccc(N5CC6(CCN6C)C5)n4)c(N)nc3-c3ncco3)cn12 , please.
228

Recorded IC50 of Cc1cnc2ccc(-c3nc(C(=O)NC4CC4)c(N)nc3-c3ncco3)cn12 , please.
247

Recorded IC50 of Cc1cc(-c2nc(C(=O)NCc3cccc(N(C)C)n3)c(N)nc2-c2ccc(F)cc2)ccn1 , please.
9030

Recorded IC50 of Cn1nc(-c2nc(C(=O)NCc3c(F)cccc3F)c(N)nc2-c2ncco2)ccc1=O , please.
95

Recorded IC50 of CNc1cccc(CNC(=O)c2nc(-c3ccc4nccn4c3)c(-c3ncco3)nc2N)n1 , please.
200

Recorded IC50 of Cc1cnc2ccc(-c3nc(C(=O)NC[C@H]4CCCN4C)c(N)nc3-c3ccc(F)cc3)cn12 , please.
959

Recorded IC50 of Nc1nc(-c2ccc(F)cc2)c(-c2ccc(=O)n(C3CC3)c2)nc1C(=O)NCc1c(F)cccc1F , please.
153

Recorded IC50 of Cc1cnc2ccc(-c3nc(C(=O)NCCN4CCCC4=O)c(N)nc3-c3ncco3)cn12 , please.
1230

Recorded IC50 of Cc1cnc2ccc(-c3nc(C(=O)N[C@@H]4CCCOC4)c(N)nc3-c3ncco3)cn12 (single isomer, unassigned; isomer 2) , please.
479

Recorded IC50 of Nc1nc(-c2ncco2)c(-c2ccc3nccn3c2)nc1C(=O)NCc1c(F)cccc1F , please.
3

Recorded IC50 of Cc1cc(-c2nc(C(=O)NCc3ccccc3Br)c(N)nc2-c2ccc(F)cc2)cc(C)n1 , please.
4170

Recorded IC50 of Cc1cnc2ccc(-c3nc(C(=O)NCCC(=O)N4CCCCC4)c(N)nc3-c3ncco3)cn12 , please.
568

Recorded IC50 of Cc1cnc2ccc(-c3nc(C(=O)NC[C@@H]4CCCO4)c(N)nc3-c3ncco3)cn12 , please.
99

Recorded IC50 of Cc1cnc2ccc(-c3nc(C(=O)NCc4cccc(N5CCN(C)CC5)n4)c(N)nc3-c3ncco3)cn12 , please.
502

Recorded IC50 of Cn1cc(-c2nc(C(=O)NCc3cccc(N)n3)c(N)nc2-c2ncco2)ccc1=O , please.
1460

Recorded IC50 of Cc1cnc2ccc(-c3nc(C(=O)NC[C@H]4CCN(C(=O)C5CC5)C4)c(N)nc3-c3ncco3)cn12 , please.
2300

Recorded IC50 of Cc1cnc2ccc(-c3nc(C(=O)NC4CCC4)c(N)nc3-c3ncco3)cn12 , please.
359

Recorded IC50 of Cn1cc(-c2nc(C(=O)NCc3ccccc3OC(F)F)c(N)nc2-c2ccc(F)cc2)ccc1=O , please.
23

Recorded IC50 of Cc1cnc2ccc(-c3nc(C(=O)N[C@H]4CCCOC4)c(N)nc3-c3ncco3)cn12 (single isomer, unassigned; isomer 1) , please.
387
